target_of_assay: T1, human TNFR2 on GloResponse NF-kB-RE-luc2p HEK293 reporter cells (human, UniProt P20333 23-461)
T1 sequence: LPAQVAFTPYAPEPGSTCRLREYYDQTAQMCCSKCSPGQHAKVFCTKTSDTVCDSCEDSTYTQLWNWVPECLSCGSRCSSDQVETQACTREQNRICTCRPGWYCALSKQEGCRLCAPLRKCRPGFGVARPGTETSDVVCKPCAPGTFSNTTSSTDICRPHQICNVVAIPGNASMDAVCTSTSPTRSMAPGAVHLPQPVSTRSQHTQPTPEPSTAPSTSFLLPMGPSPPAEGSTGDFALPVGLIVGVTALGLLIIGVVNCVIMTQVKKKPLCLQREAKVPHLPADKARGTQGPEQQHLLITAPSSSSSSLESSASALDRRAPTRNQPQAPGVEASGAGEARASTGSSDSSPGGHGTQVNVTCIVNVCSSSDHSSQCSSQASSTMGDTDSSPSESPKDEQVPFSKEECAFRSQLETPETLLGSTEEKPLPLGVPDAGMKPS
test_summary: cell-based or functional assay
property_name: EC50 in stimulating NF-kB activity (µg/mL)
Dear colleague, please return just the value in µg/mL, with no unit written.

query: Which EC50 in stimulating NF-kB activity value is on record for ABV2.15 (antibody, human IgG1, kappa, V domains shown) VH: QVQLVQSGSELKKPGASVKVSCKASGYTFTTFGMSWVRQAPGQGLEWMGWINTYSGVPHYAQGFTGRFVFSLDTSVSTAYLQISSLKAEDTAVYFCARRSNFAYWGQGTLVTVSS VL: DIVLTQSPDSLAVSLGERATINCRASESLTASGNSFMHWYQQKPGQPPKLLIYRASNLESGVPDRFSGSGSRTDFTLTISSLQAEDVAVYYCQQSRHVNWTFGGGTKVEIKR ?
result: 9.3

query: Which EC50 in stimulating NF-kB activity value is on record for ABV2.7 (antibody, human IgG1, kappa, V domains shown) VH: QVQLVQSGSELKKPGASVKVSCKASGYTFTTFGMSWVRQAPGQGLEWMGWINTYSGVPTYAQGFTGRFVFSLDTSVSTAYLQISSLKAEDTAVYFCARRSNFAYWGQGTLVTVSS VL: DIVLTQSPDSLAVSLGERATINCRASESLTASGNSFMHWYQQKPGQPPKLLIYRASNLESGVPDRFSGSGSRTDFTLTISSLQAEDVAVYYCQQSRHVNWTFGGGTKVEIKR ?
result: 10.8

query: Which EC50 in stimulating NF-kB activity value is on record for ABV2.13 (antibody, human IgG1, kappa, V domains shown) VH: QVQLVQSGSELKKPGASVKVSCKASGYTFTTFGMSWVRQAPGQGLEWMGWINTYSGVPHYAQGFTGRFVFSLDTSVSTAYLQISSLKAEDTAVYFCARRSNFAYWGQGTLVTVSS VL: DIVLTQSPDSLAVSLGERATINCRASQTVDSSGNSFMHWYQQKPGQPPKLLIYLGNRLESGVPDRFSGSGSRTDFTLTISSLQAEDVAVYYCQQSNEDPWTFGGGTKVEIKR ?
result: 4.1

query: Which EC50 in stimulating NF-kB activity value is on record for ABV2 chimera (ABV2c) (antibody, human IgG1, kappa, V domains shown, VH and VL of mouse ABV2 fused with human IgG1 and human kappa constant regions; also called ABVc; chimeric anti-human TNFR2 antibody) VH: QIQLVQSGPELKKPGETVKISCKASGYTFTTFGMSWVKQAPGKGLKWMGWINTYSGVPTYADDFKGRFAFSLETSASTAYLQINNLKNEDTATYFCARRSNFAYWGQGTLVTVSA VL: DIVLTQSPASLAVSLGQRATISCRASESVDSSGNSFMHWYQQKAGQSFKLLIYRASNLESGIPARFSGSGSRTDFTLTINPVEADDVATYYCQQSNEDPWTFGGGTKLEIKR ?
result: 8.6
